Cited source: PubChem BioAssay (NCI)

system: NCI-H23 lung; test: NCI tumour cell line growth inhibition, 48 h; in the data active = GI50 below about 0.43 µM; inactive = the rest
Hi! Could you answer with just one of these? active, inactive

Q: Which result was noted for this molecule in the test: Brc1cccc(-c2cc(-c3ccc4nccnc4c3)[nH]n2)c1
Result: inactive

Q: Entry COc1cccc(C2C(C#N)=C(N)Oc3c2ccc2ccccc32)c1 (configuration not stated) please
Result: active

Q: Entry CC(=O)OC(C)C(OC(C)=O)C(OC(C)=O)C(/C=C/C1CC=CC(=O)O1)OC(C)=O (configuration not stated) please
Result: inactive

Q: Entry CC/C=C\C/C=C/C=C1/C(=O)C=C[C@@H]1C/C=C\CCCC(=O)OC please
Result: inactive

Q: Entry O=c1cccc(C#CC#CCCCO)o1 please
Result: inactive

Q: Entry O=c1c(O)cccn1CCCN(CCCn1cccc(O)c1=O)CCn1cccc(O)c1=O please
Result: inactive

Q: Entry Oc1c(Cl)cc(Cl)c2cccnc12 please
Result: inactive

Q: Entry N.N.N.N.N.O=S(=O)([O-])C(F)(F)F.O=S(=O)([O-])C(F)(F)F.[Os+8] please
Result: inactive

Q: Entry CCN(CC)CCCC(C)Nc1c(-c2ccccc2)cnc2cc(Cl)ccc12 (configuration not stated) please
Result: inactive

Q: Entry CN(c1ccc(C#N)c(Cl)c1)C1CCC(NC(=O)c2ccc(N3CCN(C4CN(c5ccc6c(c5)C(=O)N(C5CCC(=O)NC5=O)C6=O)C4)CC3)cc2)CC1 (configuration not stated) please
Result: inactive

Q: Entry CCN(CC)CCC(CNc1c(C)cnc2cc(Cl)ccc12)c1ccc(Cl)cc1 (configuration not stated) please
Result: inactive

Q: Entry O=C1/C(=C/c2cccc(Br)c2)COc2ccc(O)c(O)c21 please
Result: inactive

----------
Give measured TGI for each item. Keep answers brief.
system: SNB-78 CNS; experiment: NCI tumour cell line growth inhibition, 48 h

Q: Would you kindly share the measured TGI for N.N.N.N.N.O=S(=O)([O-])C(F)(F)F.O=S(=O)([O-])C(F)(F)F.[Os+8] ?
Result: 77.6 µM

Q: Entry CN1Cc2c(nc(-c3ccc(Br)cc3)c[n+]2[O-])N(C)C1 please
Result: > 100 µM

Q: Entry CC(=O)Nc1ccc(C(=O)NN2C(=O)C(Cl)C2c2ccc(O)cc2)cc1 (configuration not stated) please
Result: > 100 µM

Q: Entry O=C(CCc1nc(=S)[nH][nH]1)Nc1cccc(C(F)(F)F)c1 please
Result: > 100 µM

Q: Entry CCC[CH2][Sn]([CH2]CCC)([O]C(=O)/C=C/c1ccccc1F)[O]C(=O)/C=C/c1ccccc1F please
Result: 1.7 µM

Q: Entry CN1CCc2c1nc(-c1cccnc1)c1c2N(C)CC1 please
Result: > 100 µM

Q: Entry CC(=O)[CH-]C(=O)Nc1ccccc1.CC(=O)[CH-]C(=O)Nc1ccccc1.CC[O-].CC[O-].[Ti+4] please
Result: > 100 µM

Q: Entry Cc1nc2c(sc(=S)n2-c2ccccc2)c2nc3ccccc3n12 please
Result: > 100 µM

Q: Entry COc1ccc(-c2onc(-c3c(C)cc(C)cc3C)c2C2=NCCN2)cc1 please
Result: > 100 µM

Q: Entry CCC1C(=O)OCc2c1cc1n(c2=O)C(CC)c2c-1nc1ccccc1c2Cl (configuration not stated) please
Result: > 100 µM

Q: Entry Cn1nnc2c(C(N)=O)ncn2c1=O please
Result: > 100 µM

Q: Entry CCCCCCCCCCCCCP(=O)(NCC(N)=O)OCC (configuration not stated) please
Result: 41.2 µM

----------
system: UACC-257 melanoma; assay: NCI tumour cell line growth inhibition, 48 h
quantity: TGI

Q: Would you kindly share the measured TGI for COc1cc2c(c(OC)c1OC)-c1c(cc3c(c1OC)OCO3)CC(C)C(C)(O)C2OC(=O)c1ccccc1 (configuration not stated) ?
Result: > 100 µM

Q: Entry N#Cc1c(Nc2nc3ccccc3s2)c2ccccc2n2c1nc1ccccc12 please
Result: > 100 µM

Q: Entry NC(=O)C12CC3CC(CC(Br)(C3)C1)C2 please
Result: > 100 µM

Q: Entry Cc1occ2c1C(=O)CC1C2[C@@H](O)CC2C(C)(C)CCC[C@]12C (some centres not stated) please
Result: > 100 µM

Q: Entry O=c1[nH]c2cc3cccnc3c(Cl)c2nc1CBr please
Result: 54.9 µM

Q: Entry O/N=C1/C2CC3CC1(c1ccccc1)CC(/C3=N/O)/C2=N\O (configuration not stated) please
Result: > 100 µM

Q: Entry COc1cc(/C=C/[N+](=O)[O-])cc(OC)c1OC please
Result: 9.83 µM

Q: Entry COc1cccc(C2C(C#N)=C(N)Oc3c2ccc2ccccc32)c1 (configuration not stated) please
Result: 32.8 µM

Q: Entry Clc1nc(Nc2nc3ccccc3[nH]2)nc(Cl)c1Cc1ccccc1 please
Result: > 100 µM

Q: Entry Cn1c2c(c3ccccc31)CCN1C(=O)C3SC21C1C(=O)N(c2ccccc2)C(=O)C31 (configuration not stated) please
Result: > 69.2 µM

Q: Entry CC(NNC(=O)c1ccncc1)c1ccc(Cl)c(Cl)c1 (configuration not stated) please
Result: > 100 µM

Q: Entry O/N=C1\CCc2nonc2\C1=N/Nc1ccccc1 please
Result: > 100 µM

Q: Entry O=C(COc1ccc(Cl)cc1)N1CCN(C(=O)COc2ccc(Cl)cc2)c2ccccc21 please
Result: > 100 µM

Q: Entry C=CCC1(CC)C(=O)NC(=O)NC1=O please
Result: > 100 µM

Q: Entry COc1ccc2c(c1)C(=O)c1c-2c(N2CCNCC2)nc2ccccc12 please
Result: 5.11 µM

Q: Entry CC(C)(C)c1cc(C(=O)/C=C/c2ccn[nH]2)cc(C(C)(C)C)c1O please
Result: 11.2 µM

Q: Entry CC(=O)OC(C)C(OC(C)=O)C(OC(C)=O)C(/C=C/C1CC=CC(=O)O1)OC(C)=O (configuration not stated) please
Result: 42.1 µM

Q: Entry OC(CCN1CCN(CCOC(c2ccccc2)c2ccccc2)CC1)c1ccc(Br)cc1 (configuration not stated) please
Result: 12.6 µM

Q: Entry O=C(N/C(=C\c1cc(Cl)ccc1Cl)c1nc2ccc(Cl)cc2[nH]1)c1ccccc1 please
Result: 28.3 µM

Q: Entry CN1CCN(c2cc3nc4ccccc4n(-c4ccc(Cl)cc4)c-3cc2=N)CC1 please
Result: 39.2 µM

Q: Entry CC(=O)C12C[C@](C#N)(N3CCCCCC3)C1C=Cc1ccccc12 (some centres not stated) please
Result: > 100 µM

Q: Entry CCCCCn1c(=O)c2c(=O)[nH][nH]c2c2ccccc21 please
Result: > 100 µM

----------
test system: TK-10 renal; experiment: NCI tumour cell line growth inhibition, 48 h; in the data active means GI50 below about 0.43 µM; inactive means the rest
Hi! Could you answer with just one of these? TRUE (active), FALSE (inactive)

Q: Which result was noted for this compound in the test: OCc1ccc(N2CCCC2)cc1Cl
Result: TRUE

Q: Entry C=C1CC[C@@H]2[C@](C)(COC(C)=O)[C@H](OC(C)=O)CC[C@@]2(C)[C@@H]1CC(Nc1ccc(S(=O)(=O)Nc2nccs2)cc1)C1=CCOC1=O (stereo not given in full) please
Result: FALSE

Q: Entry O=c1cccc(C#CC#CCCCO)o1 please
Result: FALSE

Q: Entry COc1ccc2c(c1)/C(=C\c1c[nH]c3ccc(OC)cc13)C(=O)N2 please
Result: FALSE

Q: Entry Cc1oc2c(c1C(=O)N1CC[C@@H](N)C1)C(=O)c1c(c(O)c3ccccc3c1O)C2=O please
Result: FALSE

Q: Entry O=C(Nc1cnc(C(F)(F)F)cn1)c1cc(Cl)ccc1O please
Result: FALSE

Q: Entry CCN(CC)CCC(CNc1c(C)cnc2cc(Cl)ccc12)c1ccc(Cl)cc1 (stereo not given) please
Result: FALSE

Q: Entry Cc1c2ccncc2c(C)c2c1c1cc(CO)ccc1n2C please
Result: TRUE

Q: Entry Nc1n[nH]c2ccc([C@@H]3Nc4cc5[nH]ncc5cc4[C@H]4C5CCC(C5)[C@@H]34)cc12 (stereo not given in full) please
Result: FALSE

Q: Entry Oc1c(Cl)cc(Cl)c2cccnc12 please
Result: FALSE

----------
tested on: HOP-92 NSCLC; assay: NCI tumour cell line growth inhibition, 48 h; in the data active = GI50 below about 0.43 µM; inactive = the rest
Hi! Could you answer with just one of these? active, inactive

Q: Which result was noted for this compound in the test: NS(=O)(=O)c1cccc(-c2ccc3c(NC(=O)C4CC4)n[nH]c3c2)c1
Result: inactive

Q: Entry Nc1n[nH]c(N)c1N=Nc1ccc(O)cc1 please
Result: inactive

Q: Entry CC(=O)OC(C)C(OC(C)=O)C(OC(C)=O)C(/C=C/C1CC=CC(=O)O1)OC(C)=O (stereo unspecified) please
Result: inactive

Q: Entry COc1cccc(CC(C)=C(c2ccc(OCCCN(C)C)cc2)c2ccc(OCCCN(C)C)cc2)c1 please
Result: inactive

Q: Entry O=C(Nc1cnc(C(F)(F)F)cn1)c1cc(Cl)ccc1O please
Result: active

Q: Entry Oc1c(Cl)cc(Cl)c2cccnc12 please
Result: inactive

Q: Entry CC/C=C\C/C=C/C=C1/C(=O)C=C[C@@H]1C/C=C\CCCC(=O)OC please
Result: inactive

Q: Entry C=C1CC[C@@H]2[C@](C)(COC(C)=O)[C@H](OC(C)=O)CC[C@@]2(C)[C@@H]1CC(Nc1ccc(S(=O)(=O)Nc2nccs2)cc1)C1=CCOC1=O (stereo partly specified) please
Result: inactive

Q: Entry CCOC1OC(=O)[C@H]2[C@@H]1[C@@H]1CC[C@H]2O1 (stereo partly specified) please
Result: inactive

Q: Entry Cc1cccc2c(Nc3ccc(NS(C)(=O)=O)cc3)c3ccc([N+](=O)[O-])cc3nc12 please
Result: active

Q: Entry O=C1/C(=C/c2cccc(Br)c2)COc2ccc(O)c(O)c21 please
Result: inactive
